- assay system: ATX (Homo sapiens (Human), UniProt Q13822)
- experiment description: ATX enzyme inhibition assay (Amplex UltraRed/choline oxidase/HRP, 16:0 Lyso PC substrate)
- Format: biochemical
- condition: assay buffer pH 8.5; read-out: IC50 (nM) pH 8.5
measured endpoint: IC50

Need IC50, item CN(c1nc(-c2ccc(F)cc2)c(C#N)s1)c1c2c(nc3c(F)cc(N4CC5(CN(C(=O)[C@]6(O)CCOC6)C5)C4)cc13)[C@@H](O)CC2 (single isomer, unassigned) [Example E19-1b]
27.2 nM

And CN(c1nc(-c2ccc(F)cc2)c(C#N)s1)c1c2c(nc3c(F)cc(N4CCN(CC(=O)N5CC6(CC(O)C6)C5)CC4)cc13)CC2 [Example F2] ?
65.2 nM

And CN(c1nc(-c2ccc(F)cc2)c(C#N)s1)c1c2c(nc3c(F)cc(N4CCN(CC(=O)N5CC(CO)C5)CC4)cc13)CCC2 [Example A5] ?
32.8 nM

And CN(c1nc(-c2ccc(F)cc2)c(C#N)s1)c1c2c(nc3ncc(N4CC5(CN(C(=O)[C@@H]6CCOC6)C5)C4)cc13)CCC2 [Example C4] ?
27.4 nM

And CN(c1nc(-c2ccc(F)cc2)c(C#N)s1)c1c2c(nc3c(F)cc(N4CC5(CN(C(=O)C(C)(C)O)C5)C4)cc13)COC2 [Example C21] ?
49.1 nM

And CN(c1nc(-c2ccc(F)cc2)c(C#N)s1)c1c2c(nc3c(F)cc(N4CCC5(CC4)CN(CC(=O)N4CC(O)C4)C5)cc13)CCC2 [Example A6] ?
44.7 nM

And CN(c1nc(-c2ccc(F)cc2)c(C#N)s1)c1c2c(nc3c(F)cc(N4CCN(CC(=O)N5CC6(CCOCC6)C5)CC4)cc13)CC2 [Example F3] ?
60.6 nM

And CN(c1nc(-c2ccc(F)cc2)c(C#N)s1)c1c2c(nc3c(F)cc(N4CC5(CCN(C(=O)[C@@H]6CCOC6)CC5)C4)cc13)CCC2 [Example C9] ?
23 nM

And CN(c1nc(-c2ccc(F)cc2)c(C#N)s1)c1c2c(nc3c(F)cc(N4CC5(CN(C(=O)N6CCCC6)C5)C4)cc13)[C@@H](O)CC2 (single isomer, unassigned) [Example E17-a] ?
22.4 nM

And C[C@@H]1CN(c2cc(F)c3nc4c(c(N(C)c5nc(-c6ccc(F)cc6)c(C#N)s5)c3c2)COC4)CCN1CC(=O)N1CC(O)C1 [Example A32] ?
94.3 nM

And CN(c1nc(-c2ccc(F)cc2)c(C#N)s1)c1c2c(nc3c(F)cc(N4CCN(CC(=O)N5CC(F)C5)CC4)cc13)CCC2 [Example A16] ?
75.7 nM

And CN(c1nc(-c2ccc(F)cc2)c(C#N)s1)c1c2c(nc3c(F)cc(N4CCN(CC(=O)N5CC(O)C5)CC4)cc13)CCCC2 [Example A27] ?
111 nM
